- methodDescription: recombinant UMI read abundance after kanamycin selection (control-corrected) (log10(CPM+1)); higher = more efficient recombination; extreme values may be limits of the assay; sequences stand for … in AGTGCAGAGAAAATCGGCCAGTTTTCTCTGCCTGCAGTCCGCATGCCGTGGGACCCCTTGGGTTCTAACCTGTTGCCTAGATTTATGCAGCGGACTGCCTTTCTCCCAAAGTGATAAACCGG…AGGTTGGTTTCACT; site = the 11-nt donor;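 also: IS621 bridge recombinase in Escherichia coli cells against a fixed T5 target plasmid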
Tag: 1 if measured recombinant UMI read abundance (log10) is not below 0.3, 0 if it is.

>>> df
                             recordsequence  classlabel
0  CCGACATCATGGACCGGTTTTCCCGGTAATCCGTATTTGCT (site CCGACATCTAG)           1

[ask] Confirm if recombinant UMI read abundance (log10) reported for the sequence CTATAGCCATGGACCGGTTTTCCCGGTAATCCGTATTTGCG (site CTATAGCCTCG) is 0.3 or above.
[reply] 1

[ask] Okay, and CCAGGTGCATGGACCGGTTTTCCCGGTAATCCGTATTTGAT (site CCAGGTACTAT) ?
[reply] 1

[ask] Next record, please: CTCCCTGCATGGACCGGTTTTCCCGGTAATCCGTATTTGAG (site CTCCCTTCTCT)
[reply] 1

[ask] Thanks! And AGAAGGGCATGGACCGGTTTTCCCGGTAATCCGTATTTGCT (site AGAATGGCTAG) ?
[reply] 0

[ask] Moving on to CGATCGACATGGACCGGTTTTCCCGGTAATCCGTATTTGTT (site GGATCGACTAA)
[reply] 0

[ask] What do you get for ACATCTTCATGGACCGGTTTTCCCGGTAATCCGTATTTGTG (site ACATCTTCTCA) ?
[reply] 1

[ask] CGACCATCATGGACCGGTTTTCCCGGTAATCCGTATTTGCT (site CGATCATCTAG) ?
[reply] 0

====

Give recombinant UMI read abundance (log10) for every item shown.
- methodDescription: recombinant UMI read abundance after kanamycin selection (control-corrected) (log10(CPM+1)); higher = more efficient recombination; extreme values may be limits of the assay; sequences stand for … in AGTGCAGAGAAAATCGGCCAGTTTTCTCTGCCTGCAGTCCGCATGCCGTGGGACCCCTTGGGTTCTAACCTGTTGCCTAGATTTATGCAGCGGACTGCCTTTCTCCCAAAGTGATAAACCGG…AGGTTGGTTTCACT; site = the 11-nt donor
Numbers only.

>>> df
                             recordsequence  reading
0  GTAGTCACATGGACCGGTTTTCCCGGTAATCCGTATTTGCG (site GTAGTCTCTCG)     2.62
1  CTGCAACCATGGACCGGTTTTCCCGGTAATCCGTATTTGCT (site CTGCAACCTAG)    0.209
2  AACCGTCCATGGACCGGTTTTCCCGGTAATCCGTATTTGAA (site AACCGTCCTAT)   0.0196
3  ACATTGCCATGGACCGGTTTTCCCGGTAATCCGTATTTGGG (site ACATTGCCTCC)   0.0159
4  CAACCAGCATGGACCGGTTTTCCCGGTAATCCGTATTTGCT (site CAACCAGCTAG)        0

I need recombinant UMI read abundance (log10) for every entry listed below, if you could help.
1. CGGGTACCATGGACCGGTTTTCCCGGTAATCCGTATTTGAT (site CGGGTACCTAT)
2. AATAGACCATGGACCGGTTTTCCCGGTAATCCGTATTTGAT (site AATAGACCTAT)
3. GGTACGTCATGGACCGGTTTTCCCGGTAATCCGTATTTGTG (site GGTACGTCTGA)
4. TGTTCCCCATGGACCGGTTTTCCCGGTAATCCGTATTTGTC (site TGTTCCCCTTA)

[reply]
[0.00441, 0, 0, 0.0152]

Entry source: the supplement of paper PMC11208160
